tested on: MS2 coat protein; assay: apparent KD of MS2 coat protein, switch OFF state (with FMN for OFF switches, without FMN for ON switches); designed switch direction (-1 OFF switch, 1 ON switch): -1; higher = weaker reporter binding; details: FMN input: 0 or 200 uM; Eterna round: R93 (includes R88 designs)
measured.quantity: apparent KD of MS2 coat protein (nM)
Entry rule: numbers only, all in nM.

Some solved cases for reference:
AAAAAACAUGAGGAUCACCCAUGUCAGGAUAUCCGGUUAAAAAAAAAAAAAAGGCGUUGGAGAAGGGACAUUCC [Chica Displaced 9 - Jieux - Exclusion 1]	33.4
AAGAACUGAGGAUAUACAUAAUAAAAGAAAAGAAACAAAGAACAUGAGGAUCACCCAUGUAGAAGGCGGAAGAA [Menwadjre Sihathor]	20.7

May I ask what apparent KD of MS2 coat protein has been recorded for AAAAAACAUGAGGAUCACCCAUGUGAGGAUAUCCAGAAGGGAAUAAAAUAACACGAAAGGAGAAGGCGCAAAAA [Ex 1 May 35] ? 31.1

----------
# apparent KD of K4 kissing-loop reporter listing for each entry below
system: K4 kissing-loop RNA reporter; test: apparent KD of K4 kissing-loop reporter; higher = weaker reporter binding; conditions: Eterna round: R107; input ligand: arginine 13.2 mM;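 also: bound reporter read as fluorescence of individual clusters on recovered sequencing chips by microscopy, with normalized cluster intensities fitted with a binding model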
Entry rule: numbers only, all in nM.

Some solved cases for reference:
GAUUUAGAGGCGGCCGCCACUAGUGAUGUUAGUGAUGUUUGAUACUGAAUAUAUCUGCGAGUAGAUAGGACCGGGCCAGAUGGAG [plmfmullin]	154
GCAGUGAUGUUGCGGAUGUACAGUGGCGUGCGAGGACCGGUACGGCCGCCACUCGUACAGAGCCAGCUAAUACAUCGAUAGGUGA [whbob_SS_Tryp_A_m6]	177

Please turn your attention to the following entry.
May I ask what apparent KD of K4 kissing-loop reporter has been recorded for GCAAACCUCAGUGAUGUUGAGUAAUCGGAAGGAGCGCGUGAAAACGCAGGUAGGUCGCCGAUACAUGAAGUAUCUUCGUGUUUGC [Arginine A K4 23] ? 365

----------
test system: MS2 coat protein; assay: apparent KD of MS2 coat protein; higher = weaker reporter binding; conditions: Eterna round: R107; input ligand: theophylline 20 uM
# apparent KD of MS2 coat protein listing for each entry below
Entry rule: numbers only, all in nM.

Some solved cases for reference:
GCAUCCUAGUCGGCCGCCACUGCAUGUAGAUACCUGCUACAUGAACAUGAGGAUCACCCAUGUAGCAGGACCGGGACUAGGAUGC [(Trp1)-(MT)''-(MT)'-(Ms2)-(Trp2)_Design1]	63.6
CAUCCUAGUACAUGAGGAUCACCCAUGUAUCGAGGACCGGUACGGCCGCCACUCGAAUGGCGGAUCGUUGAUCCUUUAGGAUGAA [Tryp A Ex t4]	20.7

Please turn your attention to the following entry.
May I ask what apparent KD of MS2 coat protein has been recorded for GGUCUCUGGAGCGAUACCAGCUUGAUCGUACUAGCCUGGUACAUGAGGAUCACCCAUGUAAGCCCUUGGCAGCGCUCCAGAGACC [#1 Exclusion - Theophylline B Attempt #8 (HarryS)] ? 15.8

----------
system: MS2 coat protein; assay: apparent KD of MS2 coat protein; designed switch direction (-1 OFF switch, 1 ON switch): -1; higher = weaker reporter binding; conditions: input ligand: none
# apparent KD of MS2 coat protein listing for each entry below
Entry rule: numbers only, all in nM.

May I ask what apparent KD of MS2 coat protein has been recorded for AGCGCCAUCGUGAGAUGGCGUAUUACAUGAGGAUCACCCAUGUAGGAUAUCGAUUGCUUUGCAGUCGAGAAGGGCAUGUCCAAG [JL ENG3 3.80 Mod I] (Eterna round: R96, puzzle: Exclusion NG 3) ? 35

Next sequence: CCGAAAAGGAAGGAUAUGCUUGACGAAAGUCAAGCAGAAGGUCCUACAUGAGGAUCACCCAUGUGGUCCUUCGG [Mat - Exclusion 6 - Eli Mod - D36] (Eterna round: R97, puzzle: Exclusion 6) 450

Next sequence: AAAACGUGAGCAGGAUAUGCAAUAAGAUCAGGUCUUCACAUGAGGAUCACCCAUGUAUAAGGGACGCAGAAGGGCUGAUAAAAG [Aesedat] (Eterna round: R96, puzzle: Exclusion NG 2) 60.9

Next sequence: ACAAUGUUAGGAUAUCUGACAACUAGCCUCGGCUAGUCGAAAGAGAAGGAACAUGAGGAUCACCCAUGUAGAUC [EX4 #71] (Eterna round: R97, puzzle: Exclusion 4) 146

Next sequence: CAGUACAGAGGAUAUACAUGAGGAUCACCCAUGUGUUUCAGGUACGAAAGUACCGAAUGUAGAAGGCUGUACUG [jl-ex3-4.25 salish99 mod] (Eterna round: R97, puzzle: Exclusion 3) 25.6

Where these numbers come from: the supplement of paper PMC9170038
